The origin of these recorded values is paper PMC7035247.

# system.under.test: WT Pgp (codon-optimized mouse mdr1a Pgp) (Mus musculus, UniProt P21447)
# Sequence (P21447 whole entry): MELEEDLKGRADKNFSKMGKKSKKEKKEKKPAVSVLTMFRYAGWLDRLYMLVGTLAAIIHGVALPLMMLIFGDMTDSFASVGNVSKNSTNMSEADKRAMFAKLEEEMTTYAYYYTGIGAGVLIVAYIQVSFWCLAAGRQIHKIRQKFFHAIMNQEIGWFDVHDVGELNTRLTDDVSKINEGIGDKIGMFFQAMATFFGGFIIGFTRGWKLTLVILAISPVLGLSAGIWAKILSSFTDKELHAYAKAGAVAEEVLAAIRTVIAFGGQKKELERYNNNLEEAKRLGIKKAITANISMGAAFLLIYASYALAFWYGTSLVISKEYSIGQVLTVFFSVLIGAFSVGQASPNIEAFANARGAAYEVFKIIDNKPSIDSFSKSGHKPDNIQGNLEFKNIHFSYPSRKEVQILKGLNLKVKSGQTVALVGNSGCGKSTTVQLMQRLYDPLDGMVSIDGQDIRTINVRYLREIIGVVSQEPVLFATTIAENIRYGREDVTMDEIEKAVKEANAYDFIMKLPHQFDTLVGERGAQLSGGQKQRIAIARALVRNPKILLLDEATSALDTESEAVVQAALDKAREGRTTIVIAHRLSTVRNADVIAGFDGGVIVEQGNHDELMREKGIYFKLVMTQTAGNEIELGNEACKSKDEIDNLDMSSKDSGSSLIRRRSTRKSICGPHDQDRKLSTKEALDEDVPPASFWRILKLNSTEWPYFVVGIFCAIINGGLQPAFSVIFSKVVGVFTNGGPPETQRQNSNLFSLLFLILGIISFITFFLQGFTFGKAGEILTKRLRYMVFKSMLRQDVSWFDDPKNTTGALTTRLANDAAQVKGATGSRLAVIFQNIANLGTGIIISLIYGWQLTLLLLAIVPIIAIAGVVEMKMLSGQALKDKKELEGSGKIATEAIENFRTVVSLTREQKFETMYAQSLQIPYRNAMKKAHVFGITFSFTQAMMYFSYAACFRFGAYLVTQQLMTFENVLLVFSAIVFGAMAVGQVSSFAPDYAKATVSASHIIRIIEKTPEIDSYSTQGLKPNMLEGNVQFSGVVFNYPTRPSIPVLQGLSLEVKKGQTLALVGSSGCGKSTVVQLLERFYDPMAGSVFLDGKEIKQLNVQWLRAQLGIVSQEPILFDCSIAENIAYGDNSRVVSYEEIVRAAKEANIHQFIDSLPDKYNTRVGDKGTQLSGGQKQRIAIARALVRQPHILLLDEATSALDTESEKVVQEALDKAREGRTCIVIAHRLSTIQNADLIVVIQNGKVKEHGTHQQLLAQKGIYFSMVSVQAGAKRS
# protocol: biochemical
# measurement.parameters: read-out: Km(MgATP); WT Pgp; in the presence of 30 μM verapamil; text says mM range
quantity.kind: Km

Requested field: Km. Item: Nc1ncnc2c1ncn2[C@@H]1O[C@H](COP(=O)(O)OP(=O)(O)OP(=O)(O)O)[C@@H](O)[C@H]1O
0.75 mM

----------
# system.under.test: WL-Pgp (Trp-less Pgp, all eleven Trps substituted) (Mus musculus, UniProt P21447, W1104Y/W132L/W158Y/W208P/W228M/W311Y/W44H/W694I/W704I/W799Y/W851P)
# Sequence (P21447 whole entry W44H/W132L/W158Y/W208P/W228M/W311Y/W694I/W704I/W799Y/W851P/W1104Y): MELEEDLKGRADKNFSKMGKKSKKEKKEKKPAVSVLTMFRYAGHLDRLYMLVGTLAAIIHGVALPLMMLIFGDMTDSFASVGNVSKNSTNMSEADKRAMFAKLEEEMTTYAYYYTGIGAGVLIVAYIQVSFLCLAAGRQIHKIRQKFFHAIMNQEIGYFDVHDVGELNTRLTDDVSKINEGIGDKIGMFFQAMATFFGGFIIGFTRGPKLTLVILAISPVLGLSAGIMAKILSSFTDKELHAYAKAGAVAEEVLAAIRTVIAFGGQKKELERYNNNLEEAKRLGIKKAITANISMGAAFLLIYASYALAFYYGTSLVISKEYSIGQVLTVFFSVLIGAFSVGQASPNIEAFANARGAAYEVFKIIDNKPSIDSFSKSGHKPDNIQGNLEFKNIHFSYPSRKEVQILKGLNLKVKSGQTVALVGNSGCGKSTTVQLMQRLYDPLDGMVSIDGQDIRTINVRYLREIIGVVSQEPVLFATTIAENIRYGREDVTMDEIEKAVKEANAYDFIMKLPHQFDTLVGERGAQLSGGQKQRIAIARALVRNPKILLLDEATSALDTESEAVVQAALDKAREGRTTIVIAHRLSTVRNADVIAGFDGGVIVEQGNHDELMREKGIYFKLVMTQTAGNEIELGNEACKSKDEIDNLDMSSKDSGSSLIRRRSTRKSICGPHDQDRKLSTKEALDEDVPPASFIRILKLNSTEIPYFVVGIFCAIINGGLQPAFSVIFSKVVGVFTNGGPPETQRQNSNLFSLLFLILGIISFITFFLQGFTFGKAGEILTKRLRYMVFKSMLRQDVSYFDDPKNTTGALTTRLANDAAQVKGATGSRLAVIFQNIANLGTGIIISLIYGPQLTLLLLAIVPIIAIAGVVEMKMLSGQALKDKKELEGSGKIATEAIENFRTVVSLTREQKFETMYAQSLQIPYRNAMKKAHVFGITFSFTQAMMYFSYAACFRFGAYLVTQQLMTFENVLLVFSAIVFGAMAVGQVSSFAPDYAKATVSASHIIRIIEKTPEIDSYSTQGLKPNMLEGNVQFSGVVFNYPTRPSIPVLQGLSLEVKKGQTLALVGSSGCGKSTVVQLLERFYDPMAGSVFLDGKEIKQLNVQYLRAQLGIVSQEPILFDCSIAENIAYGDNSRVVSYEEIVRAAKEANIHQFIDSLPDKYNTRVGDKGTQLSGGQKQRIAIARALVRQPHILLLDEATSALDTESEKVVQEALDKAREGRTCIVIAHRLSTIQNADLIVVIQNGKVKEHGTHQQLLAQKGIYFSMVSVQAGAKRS
# protocol: biochemical
# measurement.parameters: read-out: Km(MgATP); WL-Pgp; in the presence of 30 μM verapamil; text says mM range
# Procedure: The rate of ATP hydrolysis was measured at 37 °C, by an ATPase-linked enzyme assay, in the absence and presence of drugs, and statistical analysis were done as described[74],[79]. For biophysical studies, Pgp was exchanged into SEC buffer (20 mM HEPES pH 7.4, 150 mM NaCl, 10% glycerol, 0.05% DDM,) by size exclusion chromatography (SEC) on Superdex 200 (1 × 30 cm column)[85].
quantity.kind: Km (mM)
Return type: number; implicit unit mM.

Requested field: Km. Item: Nc1ncnc2c1ncn2[C@@H]1O[C@H](COP(=O)(O)OP(=O)(O)OP(=O)(O)O)[C@@H](O)[C@H]1O
0.65

----------
# system.under.test: W(3Cyto) Pgp (W44H/W132L/W208P/W228M/W311Y/W694I/W704I/W851P) (Mus musculus, UniProt P21447, W132L/W208P/W228M/W311Y/W44H/W694I/W704I/W851P)
# Sequence (P21447 whole entry W44H/W132L/W208P/W228M/W311Y/W694I/W704I/W851P): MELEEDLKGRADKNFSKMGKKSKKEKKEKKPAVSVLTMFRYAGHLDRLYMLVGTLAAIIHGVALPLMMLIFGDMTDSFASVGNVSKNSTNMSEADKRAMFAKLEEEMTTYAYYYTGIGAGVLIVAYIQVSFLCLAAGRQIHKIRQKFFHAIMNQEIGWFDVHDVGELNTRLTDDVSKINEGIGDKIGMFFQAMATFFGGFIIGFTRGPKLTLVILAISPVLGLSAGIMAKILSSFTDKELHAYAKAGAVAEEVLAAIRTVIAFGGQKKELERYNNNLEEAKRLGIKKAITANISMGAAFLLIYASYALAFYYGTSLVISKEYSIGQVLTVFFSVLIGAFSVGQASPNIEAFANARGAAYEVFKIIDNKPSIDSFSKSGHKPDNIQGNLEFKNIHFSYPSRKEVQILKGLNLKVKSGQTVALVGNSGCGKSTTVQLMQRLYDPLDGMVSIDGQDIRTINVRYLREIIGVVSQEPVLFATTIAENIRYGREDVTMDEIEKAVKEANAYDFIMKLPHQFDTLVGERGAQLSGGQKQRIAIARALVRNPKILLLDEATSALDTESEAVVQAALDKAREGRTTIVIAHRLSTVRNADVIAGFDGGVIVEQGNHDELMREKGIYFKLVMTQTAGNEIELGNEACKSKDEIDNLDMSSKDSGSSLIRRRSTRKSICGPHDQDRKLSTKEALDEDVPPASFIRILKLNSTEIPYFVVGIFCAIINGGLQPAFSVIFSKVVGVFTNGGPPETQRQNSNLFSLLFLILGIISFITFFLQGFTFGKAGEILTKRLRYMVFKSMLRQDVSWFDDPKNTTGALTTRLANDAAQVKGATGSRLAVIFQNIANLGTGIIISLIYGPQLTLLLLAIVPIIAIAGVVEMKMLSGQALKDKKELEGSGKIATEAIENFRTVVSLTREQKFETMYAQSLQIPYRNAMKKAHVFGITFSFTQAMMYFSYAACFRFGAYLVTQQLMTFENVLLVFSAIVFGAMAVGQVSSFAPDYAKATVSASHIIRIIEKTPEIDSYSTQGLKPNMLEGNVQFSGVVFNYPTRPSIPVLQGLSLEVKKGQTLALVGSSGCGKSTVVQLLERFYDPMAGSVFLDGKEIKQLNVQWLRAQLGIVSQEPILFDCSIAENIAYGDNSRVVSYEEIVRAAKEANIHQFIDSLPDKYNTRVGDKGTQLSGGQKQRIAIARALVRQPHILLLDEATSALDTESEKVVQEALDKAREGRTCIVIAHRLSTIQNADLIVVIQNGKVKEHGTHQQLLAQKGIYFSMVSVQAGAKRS
# measurement.parameters: read-out: Km(MgATP), in the presence of 30 μM verapamil
quantity.kind: Km (µM)
Return type: number; implicit unit µM.

Requested field: Km. Item: Nc1ncnc2c1ncn2[C@@H]1O[C@H](COP(=O)(O)OP(=O)(O)OP(=O)(O)O)[C@@H](O)[C@H]1O [MgATP]
400
